target: UniProtKB Q72874; assay: Inhibitory concentration required to inhibit cleavage of a substrate by the wild-type HIV-1 protease enzyme
readout: pIC50
// returns pIC50 (minus log10 of molar concentration), number only

Problem: Give me measured pIC50, please, for this compound: "CC(C)(C)NC(=O)[C@@H]1CN(C(C)(C)c2cc3cnccc3o2)CCN1C[C@@H](O)C[C@@H](Cc1ccccc1)C(=O)N[C@H]1c2ccccc2OC[C@H]1O"
Result: 10.12
